test system: Leishmania tropica promastigotes; test: Antileishmanial activity against L. tropica promastigotes (MTT assay); settings: ratio between IC50 of miltefosine and that of each compound, L. tropica promastigotes
Threshold check on Ratio IC50 Miltef./IC50 Compd. (L. tropica): strictly below 7 is Y; on or above 7 is N.

{"columns": ["Compound", "System", "Class name"],
 "data": [
  ["COc1ccc2sc3c(C)ccc(NCCCC4CCCN5CCCCC45)c3c(=O)c2c1 (stereo not shown)", "Leishmania tropica promastigotes", "Y"],
  ["C[N+]12CCCC[C@@H]1[C@H](C=C1c3ccccc3-c3ccccc31)CCC2 (stereo partly shown)", "Leishmania tropica promastigotes", "Y"],
  ["Nc1ccc(NCCCC2CCCN3CCCCC23)c2c(=O)c3ccccc3sc12 (stereo not shown)", "Leishmania tropica promastigotes", "N"],
  ["Nc1ccc(NCCC2CCCN3CCCCC23)c2c(=O)c3ccccc3sc12 (stereo not shown)", "Leishmania tropica promastigotes", "N"],
  ["O=c1c2ccccc2sc2c([N+](=O)[O-])ccc(NCCC3CCCN4CCCCC34)c12 (stereo not shown)", "Leishmania tropica promastigotes", "N"],
  ["Cc1ccc(NC[C@@H]2CCC[N+]3(C)CCCC[C@H]23)c2c(=O)c3ccccc3sc12.[I-] (stereo partly shown)", "Leishmania tropica promastigotes", "Y"],
  ["C(=C1c2ccccc2CCc2ccccc21)[C@@H]1CCCN2CCCC[C@H]12", "Leishmania tropica promastigotes", "Y"],
  ["COc1ccc2sc3c(C)ccc(NCC4CCCN5CCCCC45)c3c(=O)c2c1 (stereo not shown)", "Leishmania tropica promastigotes", "Y"],
  ["O=c1c2ccccc2sc2c([N+](=O)[O-])ccc(NCC3CCCN4CCCCC34)c12 (stereo not shown)", "Leishmania tropica promastigotes", "Y"],
  ["Cc1ccc(NCC2CCCN3CCCCC23)c2c(=O)c3ccccc3oc12 (stereo not shown)", "Leishmania tropica promastigotes", "Y"],
  ["O=c1c2ccccc2sc2c([N+](=O)[O-])ccc(NCCCC3CCCN4CCCCC34)c12 (stereo not shown)", "Leishmania tropica promastigotes", "Y"],
  ["Cc1ccc(NC[C@@H]2CCCN3CCCC[C@H]23)c2c(=O)c3ccccc3sc12", "Leishmania tropica promastigotes", "N"],
  ["C[N+]12CCCC[C@@H]1[C@H](C=C1c3ccccc3CCc3ccccc31)CCC2.[I-] (stereo partly shown)", "Leishmania tropica promastigotes", "Y"],
  ["COc1ccc2sc3c(C)ccc(NCCC4CCCN5CCCCC45)c3c(=O)c2c1 (stereo not shown)", "Leishmania tropica promastigotes", "Y"],
  ["Nc1ccc(NCC2CCCN3CCCCC23)c2c(=O)c3ccccc3sc12 (stereo not shown)", "Leishmania tropica promastigotes", "N"],
  ["Cc1ccc(NCCCC2CCCN3CCCCC23)c2c(=O)c3ccccc3sc12 (stereo not shown)", "Leishmania tropica promastigotes", "Y"],
  ["CCCCCCCCCCCCCCCCOP(=O)([O-])OCC[N+](C)(C)C [Miltefosine, reference compound]", "Leishmania tropica promastigotes", "Y"],
  ["CCN(CC)CCNc1ccc(C)c2sc3ccccc3c(=O)c12", "Leishmania tropica promastigotes", "N"],
  ["C(=C1c2ccccc2-c2ccccc21)[C@@H]1CCCN2CCCC[C@H]12", "Leishmania tropica promastigotes", "N"],
  ["COc1ccc2sc3c([N+](=O)[O-])ccc(NCCCC4CCCN5CCCCC45)c3c(=O)c2c1 (stereo not shown)", "Leishmania tropica promastigotes", "Y"]
]}
